# Tested on: P. aeruginosa (ATCC 9027)
Residues, ends and D or L forms follow the SMILES beside them.
PARAMETER_MEASURED: MIC

>>> result("CC[C@H](C)[C@H](NC(=O)[C@H](CCCCN)NC(=O)[C@H](CCCCN)NC(=O)[C@@H](NC(=O)[C@@H](NC(=O)[C@H](CCCCN)NC(=O)[C@H](CCCCN)NC(=O)[C@@H](NC(=O)[C@@H](NC(=O)[C@H](CCCCN)NC(=O)[C@H](CCCCN)NC(=O)[C@@H](NC(=O)[C@@H](NC(=O)[C@H](CC(=O)O)NC(=O)[C@H](Cc1ccccc1)NC(=O)[C@H](CC(C)C)NC(=O)CN)[C@@H](C)CC)[C@@H](C)CC)[C@@H](C)CC)[C@@H](C)CC)[C@@H](C)CC)[C@@H](C)CC)C(N)=O [IK-3] (H-GLFDIIKKIIKKIIKKI-NH2)")
"16 µM"
